Entries annotated with measured TGI
- Tested on: MCF7 breast
- test details: NCI tumour cell line growth inhibition, 48 h

Example cases with answers are listed next.
compound: CCCCCCCCCC(CCCC(O)CC(=O)O)OC1OC(COC2OC(C)C(O)C(O)C2O)C(O)C(O)C1OC1OC(CO)C(O)C(O)C1OC1OC(C)C(OC(=O)CC(C)C)C(O)C1O (centres undefined)
property label: TGI
obs value: > 60 µM
//
compound: CCNCC(O)COc1ccc2c(c1)[n+]([O-])nc(N)[n+]2[O-] (centres undefined)
property label: TGI
obs value: > 100 µM
//
compound: COc1ccc(C2C(C#N)=C(N)Oc3c2sc2c(F)cccc32)cc1 (centres undefined)
property label: TGI
obs value: 13.6 µM
//
compound: Clc1ccc(Nc2nnc(CNc3ccccc3)c3ccccc23)cc1
property label: TGI
obs value: 11.1 µM

Look up and state reported TGI for COc1cc(/C=C2\C[C@H]3[C@@H]4CC=C5C[C@@H](OC(C)=O)CC[C@]5(C)[C@H]4CC[C@]3(C)\C2=N\O)cc(OC)c1OC
> 100 µM

Look up and state reported TGI for Cc1ccc(NC(=O)/C=C/c2ccccc2)c(C)c1
> 100 µM

Look up and state reported TGI for Clc1nc(Cl)c2ncn(C/C=C\COc3cccc(OC/C=C\Cn4cnc5c(Cl)nc(Cl)nc54)c3)c2n1
> 100 µM

Look up and state reported TGI for O=[N+]([O-])/C(C(Cl)=C(Cl)Cl)=C1\NCCS1
> 100 µM

Look up and state reported TGI for CN(C)c1nc(N)nc(CCl)n1
> 100 µM

* * *

Entries annotated with measured TGI
- System: A549 NSCLC
- test details: NCI tumour cell line growth inhibition, 48 h

Example cases with answers are listed next.
molecule: O=C(Cc1nc(-c2ccccc2)cc(=O)n1-c1ccccc1Cl)c1ccncc1
property label: TGI
obs value: > 100 µM
--
molecule: O=C(/C=C/c1ccc(Cl)cc1)c1ccc(Cl)c(Cl)c1
property label: TGI
obs value: > 100 µM
--
molecule: COc1ccc2c(C)cc(C)nc2n1
property label: TGI
obs value: > 100 µM
--
molecule: O=C1NC(=NCc2ccccc2Br)S/C1=C\c1ccc2ncccc2c1
property label: TGI
obs value: > 25 µM

Give the observed TGI of Cc1cc2nc(N3C(=O)/C(=C/c4ccc(Oc5ccccc5)cc4)N=C3c3ccccc3)sc2cc1C for A549 NSCLC.
> 100 µM

Give the observed TGI of CCc1nnc(CC)n1N1C(=O)CCC1=O for A549 NSCLC.
> 100 µM

* * *

- Test system: NCI-H23 lung
- test details: NCI tumour cell line growth inhibition, 48 h
property label: TGI

Example cases with answers are listed next.
compound: COc1ccc2c(c1)OCCCN(C)OC2c1ccccc1 (configuration not stated)
TGI: > 100 µM

compound: COc1cc2c3c(c1O)-c1c(ccc(OC)c1OC)CC3N(C)CC2 (configuration not stated)
TGI: > 100 µM

compound: COC12OCCN(CCO)C1=CC(=O)C1(C)N=NC(C)C12 (configuration not stated)
TGI: > 100 µM

compound: CC(C)NC(=O)OCc1c(COC(=O)NC(C)C)c(-c2ccc[n+](COC(=O)C(C)C)c2)n2c1CCC2
TGI: > 100 µM

compound: CC(C)/C=N\N1C(N)=C(C#N)C(C#N)(C#N)C1C(C)C (configuration not stated)
TGI: > 100 µM

compound: CC1=CC(O)(c2ccccc2)C(N2CCOCC2)N1O (configuration not stated)
TGI: > 100 µM

compound: COc1ccc2c(c1)CCc1c(C(C)=O)c3ccccc3n1C2
TGI: > 100 µM

compound: COc1cc(C2CC(c3cccc(Nc4ccnc5cc(Cl)ccc45)c3)=NN2C=O)cc(OC)c1OC (configuration not stated)
TGI: 21.5 µM

compound: C/C(=C1\SC(=NCc2cccs2)NC1=O)c1ccc2ncccc2c1
TGI: > 25 µM

compound: CC1(C(=O)Nc2ccc3cc4ccccc4cc3c2)CC2(C)CC(C)(C1)C(O)NC2=O (configuration not stated)
TGI: > 100 µM

Look up and state reported TGI for O=C(NCCCN1CCC(N2CCCCC2)CC1)C1=Cc2cc(Br)ccc2OC1
36.2 µM

Look up and state reported TGI for O=C(OCc1nc2nc(Cl)nc(N3CCOCC3)c2[nH]1)n1ccnc1
5.69 µM

Look up and state reported TGI for COc1ccc(-c2c(C#N)c(=O)nc(SC)n2C2OCC(OC(C)=O)C(OC(C)=O)C2OC(C)=O)cc1 (configuration not stated)
> 100 µM

Look up and state reported TGI for CC(=O)c1c2c(cc3c1CC1(Cc4cc5c(cc4C1)CCCC5)C3)CCCC2
> 100 µM

Look up and state reported TGI for COc1cccc(/C=C(\NC(C)=O)c2nc3ccc(Cl)cc3[nH]2)c1
> 100 µM

* * *

- System: NCI-H226 lung
- test details: NCI tumour cell line growth inhibition, 48 h; in the data active = GI50 below about 0.43 µM; inactive = the rest
# valid calls are active, inactive; nothing else

Worked set:
compound: COc1cc(-c2cc(/C=C3\C(=O)Nc4cc(Cl)ccc43)[nH]n2)cc(OC)c1OC
tgt: NCI-H226 lung
category label: inactive
//
compound: Oc1c(I)cc(I)cc1CNCCN(Cc1ccccn1)Cc1ccccn1
tgt: NCI-H226 lung
category label: inactive
//
compound: CC(C)(O)/C=C/C(=O)[C@](C)(O)[C@H]1[C@H](O)C[C@@]2(C)[C@@H]3CC=C4[C@@H](C=C(O)C(=O)C4(C)C)[C@]3(C)C(=O)C[C@]12C
tgt: NCI-H226 lung
category label: active
//
compound: O=c1[nH]cnc2c1ccn2C1OC(CO)C(O)C1O (centres undefined)
tgt: NCI-H226 lung
category label: inactive
//
compound: COc1cc(C)cc2c1[nH]c1ccccc12
tgt: NCI-H226 lung
category label: inactive
//
compound: O=C1NC(=NCc2ccccc2Br)S/C1=C\c1ccc2ncccc2c1
tgt: NCI-H226 lung
category label: inactive
//
compound: Cc1ncc(C(=O)Nc2ccc(CN3CCN(C)CC3)c(C(F)(F)F)c2)cc1C#Cc1c(N)ncc2ccc(F)cc12
tgt: NCI-H226 lung
category label: inactive
//
compound: Clc1nc(Cl)c2ncn(C/C=C\COc3cccc(OC/C=C\Cn4cnc5c(Cl)nc(Cl)nc54)c3)c2n1
tgt: NCI-H226 lung
category label: inactive

Test call, this compound: C=CCNCCN1C(=O)c2ccc3c4c(ccc(c24)C1=O)C(=O)N(CCNCC=C)C3=O
inactive

Test call, this compound: CCN(CC)c1ccc(/C=N/NC(=O)c2ccc(S(C)(=O)=O)cc2)c(O)c1
active

Test call, this compound: Cc1c2c(nn1-c1ccc(S/N=C3\SCC(=O)CN3Cc3ccccc3)cc1)-c1ccccc1CC2
inactive

Test call, this compound: O=C(NCCCN1CCC(N2CCCCC2)CC1)C1=Cc2cc(Br)ccc2OC1
inactive

Test call, this compound: Cc1cc(Nc2nc(-c3ccc(F)cc3)nc3ccccc23)n[nH]1
inactive

Test call, this compound: CSc1nc(N)cc(Oc2ccc(-c3nc(Nc4cccc(C(F)(F)F)c4)n[nH]3)cc2)n1
inactive

* * *

- System: RXF 393 renal
- test details: NCI tumour cell line growth inhibition, 48 h
Entries annotated with measured GI50

molecule: Cc1cc(Nc2nc(-c3ccc(F)cc3)nc3ccccc23)n[nH]1
GI50: 757 nM

# next molecule below
Look up and state reported GI50 for Cc1ncc(C(=O)Nc2ccc(CN3CCN(C)CC3)c(C(F)(F)F)c2)cc1C#Cc1c(N)ncc2ccc(F)cc12
608 nM

* * *

- Tested on: SK-MEL-2 melanoma
- test details: NCI tumour cell line growth inhibition, 48 h
Please note: criterion met applies when TGI is 20 µM or greater, and criterion not met applies otherwise.

compound: Cc1cc(S(=O)(=O)NC2=NCC(C)NN2)c(S)cc1Cl (stereo unspecified)
category label: criterion met
//
compound: O=C(OCc1nc2nc(Cl)nc(N3CCOCC3)c2[nH]1)n1ccnc1
category label: criterion not met
//
compound: COc1ccc(NC(=O)Nc2ccccc2CNc2nc(Nc3ccc(OCCN4CCCC4)cc3)ncc2Cl)cc1
category label: criterion not met
//
compound: O=C(CC(=O)N1N=C(N2c3ccccc3Sc3ccccc32)CC1c1ccccc1)Nc1ccccc1Cl (stereo unspecified)
category label: criterion met

Is reported TGI greater than or equal to 20 µM here: Cc1cc(C)c2c(c1)CC1(Cc3c(ccc(C)c3C)C1=O)C2=O (stereo unspecified)
criterion met

Is reported TGI greater than or equal to 20 µM here: Cc1ccc(NC(=O)/C=C/c2ccccc2)c(C)c1
criterion met

Is reported TGI greater than or equal to 20 µM here: CC(C)(C)OC(=O)N1CC(O)O[C@H](c2ccccc2)[C@@H]1c1ccccc1 (stereo partly specified)
criterion met

Is reported TGI greater than or equal to 20 µM here: COc1ccc(C2C(C#N)=C(N)Oc3c2sc2c(F)cccc32)cc1 (stereo unspecified)
criterion not met

Is reported TGI greater than or equal to 20 µM here: Cc1nc(-c2nc(C)c(C(=O)/C=C/c3ccc([N+](=O)[O-])cc3)s2)sc1C(=O)/C=C/c1ccc([N+](=O)[O-])cc1
criterion met
